Tested on: HS 578T breast
assay-notes: NCI tumour cell line growth inhibition, 48 h
Where a SMILES comes first, the peptide text is derived from it. The star is where a group is joined. OSu = O=C1CCC(=O)N1O*
Please provide measured TGI for the entries that follow.

Query string: Return reported TGI; argument: COc1cc(NC(C)CCCNC(C)C)c2ncccc2c1OC (stereo unspecified)
Result string: 60.7 µM

Query string: Look up TGI: COc1cc(-c2cc3ncccc3c3[nH]c(=O)c4cccnc4c23)cc(OC)c1OC
Result string: > 100 µM

Query string: Consider the compound shown here: CCOC(=O)/C=C(/C(=O)OCC)n1ccc(=O)n(Cc2cnnn2CCCCOC(C)=O)c1=O What is its recorded TGI?
Result string: > 100 µM

Query string: Item C=CCn1c(-c2ccc(Cl)cc2)csc1=Nc1ccccc1OC has what recorded TGI?
Result string: > 100 µM

Query string: What value of TGI has been reported for the following compound? CCOC(=O)C#Cc1c(C(=O)OCC)nnn1[C@@H]1O[C@H](CO)[C@H]2OC3(CCCCC3)O[C@H]21
Result string: 58.3 µM

Query string: Which TGI value belongs to CCn1c(=N)sc2nc3ccccc3n2c1=O ?
Result string: > 100 µM

Query string: I have this compound here, OC(COc1ccccc1)CN1CCCCC1 (stereo unspecified) , and I need its recorded TGI.
Result string: > 100 µM

Query string: Which value of TGI has been reported for Cc1ccc(S(=O)(=O)NC(=O)NC(CCC(N)=O)C(=O)O)cc1 (stereo unspecified) in the records?
Result string: > 100 µM

Query string: Fill in the blank: the reported TGI of NCCCCC(NC(=O)C(N)Cc1ccc(O)cc1)C(=O)NC(Cc1ccc(O)cc1)C(=O)NC(CCCCN)C(=O)ON1C(=O)CCC1=O (stereo unspecified) (H-YKYK-OSu; configuration not given here) is ____.
Result string: > 100 µM

Query string: Any idea what TGI was measured for Nc1c2cc3ccc2nc2ccc(cc12)OCCOCCOCCOCCOCCOCCO3 ?
Result string: > 10 µM

Query string: Which TGI is reported for this compound? Cn1cncc1-c1c(F)cncc1NC(=O)c1c(N)nn2cc(F)cnc12
Result string: 24.2 µM

Query string: Quick one: TGI of NC(CSC(c1ccccc1)(c1ccccc1)c1ccc(F)cc1)C(=O)O (stereo unspecified) ?
Result string: 0.841 µM

Query string: Please look up its TGI: CC12CCC(CC1(Cl)Cl)C2 (stereo unspecified)
Result string: > 100 µM

Query string: Which TGI is listed for CC(=O)n1nc(-c2ccc3ccccc3c2)nc1C ?
Result string: > 100 µM

Query string: # lookup: TGI of O=C1C(Cl)=C(NCCF)C(=O)c2ncccc21
Result string: 4 µM

Query string: What value of TGI has been reported for the following compound? NCCNC(=O)CN(CC(=O)O)C1CCCCC1N(CC(=O)O)CC(=O)O (stereo unspecified)
Result string: > 100 µM

Query string: Entry COC(=O)C1(O)C(c2ccccc2)NC2(C)CCCC21 (stereo unspecified) : reported TGI = ?
Result string: > 100 µM

Query string: State the recorded TGI for this entry: Cc1cn(C2OC(CO)C(O)C2F)c(=O)[nH]c1=O (stereo unspecified)
Result string: > 100 µM

Query string: Using the record for O=C(O)Cn1ccc2ccccc21 , report its TGI.
Result string: > 100 µM

Query string: So what's the measured TGI for this one? C[n+]1ccccc1/C1=c2\cc/c([nH]2)=C(\c2cccc[n+]2C)C2=N/C(=C(/c3cccc[n+]3C)C3C=CC(N3)/C(c3cccc[n+]3C)=C3/C=CC1=N3)C=C2
Result string: > 100 µM

Query string: What measured TGI goes with COc1ccc2[nH]c(C(=O)OCc3ccc4cccc(O)c4n3)cc2c1 ?
Result string: 4.6 µM

----------
System: ACHN renal
assay-notes: NCI tumour cell line growth inhibition, 48 h
value-type: GI50

Query string: Please give the measured GI50 for this compound: O=C([CH-]C(=O)c1ccccc1)c1ccccc1.O=C([CH-]C(=O)c1ccccc1)c1ccccc1.O=C([CH-]C(=O)c1ccccc1)c1ccccc1.[Cl-].[Zr+4]
Result string: 22 µM

Query string: Given CCc1nn2ncccc2c1-c1ccnc(NC2CC2)n1 , state its recorded GI50.
Result string: > 25 µM

Query string: # lookup: GI50 of O=C(Oc1ccccc1)C(Br)C(Br)c1ccccc1 (centres undefined)
Result string: 2.06 µM

Query string: What value of measured GI50 is listed for CCC[CH2][Sn]([CH2]CCC)([O]C(=O)c1cccc(F)c1F)[O]C(=O)c1cccc(F)c1F ?
Result string: 1.28 µM

Query string: I have this compound here, COc1cc(-c2cc3ncccc3c3[nH]c(=O)c4cccnc4c23)cc(OC)c1OC , and I need its recorded GI50.
Result string: 0.885 µM

Query string: Name the recorded GI50 for O=C(O)Cn1ccc2ccccc21 .
Result string: > 100 µM

Query string: Return reported GI50; argument: CCN(CC)c1ccc2nc3ccc(N=Nc4ccc(O)cc4)cc3[n+](-c3ccccc3)c2c1
Result string: 4.1 µM

Query string: May I ask what GI50 has been recorded for Cc1ccc(O)c(NC2=C(Cl)C(=O)N(Cc3ccccc3)C2=O)c1 ?
Result string: 32.4 µM

Query string: I have this compound here, CC1=C(C#N)C(/C=C(\Cl)c2ccc(F)cc2)C(C#N)=C(C)N1 , and I need its recorded GI50.
Result string: > 100 µM

----------
Please respond with reported GI50 for every item in the list.
Tested on: 786-0 renal
assay-notes: NCI tumour cell line growth inhibition, 48 h

Query string: # query: GI50 | item c1cc[c]([Sn]([O]c2cccc3cccnc23)([O]c2cccc3cccnc23)[c]2ccccc2)cc1 | system: 786-0 renal
Result string: 0.57 µM

Query string: Find GI50 (786-0 renal) for the entry CC(=O)O[C@H](C[C@H](C(C)C)N(C)C(=O)[C@@H](NC(=O)[C@H]1CCCCN1C)C(C)C)c1cccc(C(=O)N[C@@H](Cc2ccccc2)C[C@H](C)C(=O)O)n1
Result string: 0.0463 µM

Query string: Record lookup: for 786-0 renal, what GI50 belongs to O=C(O)Cn1ccc2ccccc21 ?
Result string: > 100 µM

Query string: Which measured GI50 belongs to Cc1c(C)c2c(c(C)c1OCC(=O)O)CC[C@@](C)(CCC[C@@H](C)CCC[C@@H](C)CCCC(C)C)O2 , tested on 786-0 renal?
Result string: 93.3 µM

Query string: What reported GI50 corresponds to O=C(/C=C\n1cnc(-c2cc(C(F)(F)F)cc(C(F)(F)F)c2)n1)N1CC(F)(F)C1 on 786-0 renal?
Result string: 0.387 µM

Query string: What value of GI50 on 786-0 renal does NCCOc1ncccc1/C=C1\c2ccccc2-c2ccc([N+](=O)[O-])cc21 have?
Result string: 0.0268 µM

Query string: Kindly state the measured GI50 obtained for Cn1cncc1-c1c(F)cncc1NC(=O)c1c(N)nn2cc(F)cnc12 with 786-0 renal.
Result string: 0.338 µM

Query string: So what GI50 did CCc1nn2ncccc2c1-c1ccnc(NC2CC2)n1 get with 786-0 renal?
Result string: > 25 µM

Query string: Lab note: need GI50 for CN1CCN(CCCOc2cccc3nc(Nc4ccc(F)c(F)c4)ccc23)CC1 on 786-0 renal, anyone have it?
Result string: 4.66 µM

Query string: Given the entry CCC[CH2][Sn]([CH2]CCC)([O]C(=O)c1cccc(F)c1F)[O]C(=O)c1cccc(F)c1F , what GI50 was observed with 786-0 renal?
Result string: 1.05 µM

Query string: Report GI50 for O=C(Nc1ccc2c(c1)OCCO2)C(=O)c1c[nH]c2ccccc12 tested on 786-0 renal.
Result string: 4.28 µM

Query string: Param readout = GI50; param system = 786-0 renal; param query = CCOC(=O)C#Cc1c(C(=O)OCC)nnn1[C@@H]1O[C@H](CO)[C@H]2OC3(CCCCC3)O[C@H]21 ; response: value
Result string: 2.88 µM

Query string: API: value(readout= GI50, system= 786-0 renal, query= CC(C)(C)c1nc(-c2cccc(NS(=O)(=O)c3c(F)cccc3F)c2F)c(-c2ccnc(N)n2)s1 )
Result string: 48.9 µM

Query string: Notebook entry, 786-0 renal assay: GI50 of CCC[CH2][Sn]([CH2]CCC)([CH2]CCC)[O]C(=O)C(OC)c1ccccc1 (configuration not stated) = ?
Result string: 0.142 µM

Query string: Checklist item: GI50 tested on 786-0 renal, entry COc1ccc(-c2nsc3c2NC(=O)CC3c2cccc(Cl)c2)cc1 (configuration not stated) , value?
Result string: 9.39 µM

Query string: Give recorded GI50 with 786-0 renal for the following compound: CC/C(Cc1ccccc1)=C(/c1ccc(O)cc1)c1ccc(OCCN2CCCC2)cc1
Result string: 1.72 µM

Query string: Lab note: need GI50 for COc1ccc2c(c1)O/C(=C\c1cccc(OCC(=O)Nc3nc(C)c(C)s3)c1)C2=O on 786-0 renal, anyone have it?
Result string: 0.715 µM
